The values you see were collected from patent US10975037B2.

molecular target: full-length human RORγt (Homo sapiens (Human), UniProt P51449); experiment: RORγt (full-length human) reporter assay, conditions A or B, HEK293T cells; type: cell-based; details: RORγt (FL) Reporter Assay A or B, IC50, HEK293T cells
Sequence (P51449 other isoform, or with tags, fused parts or gaps): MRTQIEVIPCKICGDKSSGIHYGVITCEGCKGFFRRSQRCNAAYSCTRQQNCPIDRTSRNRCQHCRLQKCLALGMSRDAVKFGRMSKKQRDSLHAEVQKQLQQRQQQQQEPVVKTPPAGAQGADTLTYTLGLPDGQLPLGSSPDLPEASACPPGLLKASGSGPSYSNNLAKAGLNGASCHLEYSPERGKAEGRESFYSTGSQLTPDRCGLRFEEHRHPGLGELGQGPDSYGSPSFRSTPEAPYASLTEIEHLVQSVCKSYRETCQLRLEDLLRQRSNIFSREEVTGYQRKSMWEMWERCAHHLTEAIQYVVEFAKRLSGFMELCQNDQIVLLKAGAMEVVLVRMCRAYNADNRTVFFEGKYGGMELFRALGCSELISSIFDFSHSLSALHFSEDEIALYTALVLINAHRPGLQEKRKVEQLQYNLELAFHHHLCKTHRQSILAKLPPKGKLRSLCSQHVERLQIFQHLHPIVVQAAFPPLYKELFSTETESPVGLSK
Structures can show the parent of a compound that is named as a salt.
QUANTITY MEASURED: pIC50
# pIC50 is unitless: minus log10 of the molar concentration; print number only

// lookup pIC50 for COc1cc(N[C@H](C)C(F)(F)F)ccc1-c1c(Cl)c(C(=O)NC[C@H]2CC[C@H](S(C)(=O)=O)CC2)nn1C(C)(C)C [Example 26]
7.54

Query: pIC50; subject: CCn1nc(C(=O)NC[C@H]2CC[C@H](S(C)(=O)=O)C[NH+]2CC(=O)ON)c(Cl)c1-c1ccc(CC(C)(C)C(F)(F)F)cc1OC(F)F (stereo in doubt) [Example 64, Trifluoroacetic Acid Salt]
7.29

For CCn1nc(C(=O)NC[C@]2(O)CC[C@@H](S(C)(=O)=O)CC2)c(C#N)c1-c1ccc(CC(C)(C)C(F)(F)F)cc1OC [Example 126] , what is its reported pIC50?
7.08

Endpoint output: pIC50 of CCn1nc(C(=O)NC[C@]2(C#N)CC[C@@H](S(C)(=O)=O)CC2)c(Cl)c1-c1ccc(N[C@H](C)C(F)(F)F)cc1OC [Example 32] . Value?
7.28

If you can, please state the reported pIC50 value of CCn1nc(C(=O)NC[C@H]2CC[C@H](S(C)(=O)=O)CC2)c(Cl)c1-c1ccc(N[C@H](C)C(F)(F)F)cc1C(C)C [Example 204] .
7.28

Can you share its pIC50? I mean this compound: CCn1nc(C(=O)NC[C@H]2CC[C@H](S(C)(=O)=O)CC2)c(Cl)c1-c1ccc(OC(C)C(F)(F)F)cc1OC (some centres unmarked) [Example 212]
7.48

pIC50 for CCn1nc(C(=O)NC[C@]2(O)CC[C@@H](S(C)(=O)=O)CC2)c(Cl)c1-c1ccc(CC(C)(C)C(F)(F)F)cc1 [Example 167] ?
7.62

Query: pIC50; subject: CCn1nc(C(=O)NC[C@]2(O)CC[C@@H](S(N)(=O)=O)CC2)c(Cl)c1-c1ccc(C[C@H](C)C(F)(F)F)cc1OC(F)F (single isomer, unassigned) [Example 60]
7.42

Given the compound CCn1nc(C(=O)NC[C@H]2CC[C@H](S(C)(=O)=O)CN2)c(Cl)c1-c1ccc(CC(C)(C)C(F)(F)F)cc1OC(F)F (stereo in doubt) [Example 8, Hydrobromide] , what is its reported pIC50?
7.89

// pIC50 lookup, key: CCn1nc(C(=O)NC[C@H]2CC[C@H](S(C)(=O)=O)CC2)c(Cl)c1-c1ccc(OC2CCC(F)(F)CC2)cc1OC [Example 219]
7.52

I have this compound here, CCn1nc(C(=O)NC[C@H]2CC[C@H](S(C)(=O)=O)CC2)c(Cl)c1-c1ccc(N[C@H](C)C(F)(F)F)cc1OC(C)C [Example 207] , and I need its recorded pIC50.
7.40

---

target: full-length human RORγt (Homo sapiens (Human), UniProt P51449); assay: RORγt (full-length human) reporter assay, conditions A or B, HEK293T cells; format: cell-based; details: HEK-293T; 0.67 μM compound concentration (footnote ****); read-out: RORγt (FL) Reporter Assay A or B, % inhibition
QUANTITY MEASURED: inhibition at 0.67 µM (%)
Number in %, nothing else.

I would be grateful if you could share the reported inhibition at 0.67 µM for CCn1nc(C(=O)NC[C@H]2CC[C@H](S(C)(=O)=O)CC2)c(Cl)c1-c1ccc(CC(C(F)(F)F)C(F)(F)F)cc1OC(F)F .
103

Could you share which inhibition at 0.67 µM value was measured for Cn1nc(C(=O)NC[C@]2(O)CC[C@@H](S(C)(=O)=O)CC2)c(Cl)c1-c1ccc(CC(C)(C)C(F)(F)F)cc1OC(F)F ?
91

Using the record for CCn1nc(C(=O)NC[C@H]2CC[C@H](S(C)(=O)=O)CC2)c(C)c1-c1ccc(CCC(F)(F)F)cc1OC , report its inhibition at 0.67 µM.
71

What does the record list as inhibition at 0.67 µM for CCn1nc(C(=O)NC[C@]2(O)CC[C@@H](S(C)(=O)=O)C[C@H]2O)c(Cl)c1-c1ccc(CC(C)(C)C(F)(F)F)cc1OC(F)F (single isomer, unassigned) ?
92

Please give the measured inhibition at 0.67 µM for this compound: CCn1nc(C(=O)NC[C@H]2CC[C@H](S(C)(=O)=O)CC2)c(C)c1-c1ccc(CC(C)(C)C(F)(F)F)cc1OC
92

I'd like to know its inhibition at 0.67 µM. The compound in question is COCCn1nc(C(=O)NC[C@H]2CC[C@H](S(C)(=O)=O)CC2)c(Cl)c1-c1ccc(CC(C)(C)C(F)(F)F)cc1OC(F)F
91

---

biological target: full-length human RORγt (Homo sapiens (Human)); assay: RORγt (full-length human) reporter assay, conditions A or B, HEK293T cells; format: cell-based; settings: RORγt (FL) Reporter Assay A or B, IC50, HEK293T cells
QUANTITY MEASURED: pIC50
pIC50 (log units): -log10 of the concentration in mol/L.

Give pIC50 (full-length human RORγt (Homo sapiens (Human))) of the following compound: CCn1nc(C(=O)NC[C@H]2CC[C@@H](S(C)(=O)=O)CO2)c(Cl)c1-c1ccc(N[C@H](C)C(F)(F)F)cc1OC (relative stereo)
5.66

Entry CCn1nc(C(=O)NC[C@]2(CO)CC[C@@H](S(C)(=O)=O)CC2)c(Cl)c1-c1ccc(CC(C)C(F)(F)F)cc1OC (stereo partly drawn) , system full-length human RORγt (Homo sapiens (Human)): what pIC50 was measured?
7.18

Lab note: need pIC50 with full-length human RORγt (Homo sapiens (Human)) for entry CCn1nc(C(=O)NC[C@]2(O)CC[C@@H](S(N)(=O)=O)CC2)c(Cl)c1-c1ccc(CC(C)(C)C(F)(F)F)cc1OC(F)F , please look it up.
7.92

Please tell me: pIC50 of CCn1nc(C(=O)NC[C@]2(O)CC[C@@H](S(C)(=O)=O)CC2)c(C)c1-c1ccc(CCCC(F)(F)F)cc1OC , system full-length human RORγt (Homo sapiens (Human))?
7.48

# query: pIC50 | item CCn1nc(C(=O)NC[C@H]2CC[C@H](S(C)(=O)=O)CC2)c(Cl)c1-c1ccc(CCC(F)(F)F)cc1C(F)(F)F | system: full-length human RORγt (Homo sapiens (Human))
6.36

---

biological target: full-length human RORγt (Homo sapiens (Human)); experiment: RORγt (full-length human) reporter assay, conditions A or B, HEK293T cells; format: cell-based; details: RORγt (FL) Reporter Assay A or B, IC50, HEK293T cells
Where a name gives a salt, the structure may show the parent alone.
# note: exactly 10 nM is not below, so it is criterion not met; use criterion met for IC50 strictly under it

# check: IC50 < 10 nM for CCn1nc(C(=O)NC[C@]2(O)CC[C@@H](S(C)(=O)=O)C[C@H]2N)c(Cl)c1-c1ccc(CC(C)(C)C(F)(F)F)cc1OC(F)F (stereo in doubt) [Example 5, Hydrobromide]
criterion not met

I'd appreciate it if you could check whether CCn1nc(C(=O)NC[C@@H]2CC[C@@H](S(C)(=O)=O)CO2)c(Cl)c1-c1ccc(CC(C)(C)C(F)(F)F)cc1OC(F)F (racemic) [Example 14] has IC50 smaller than 10 nM.
criterion met

For CCn1nc(C(=O)NC[C@H]2CC[C@H](S(C)(=O)=O)CC2)c(Cl)c1-c1ccc(C[C@@H](C)C(F)(F)F)cc1OC (single isomer, unassigned) [Example 1] , is the recorded IC50 below the cut-off of 10 nM?
criterion met

IC50 strictly < 10 nM for this molecule? Cn1nc(C(=O)NC[C@@]2(O)CC[C@H](S(C)(=O)=O)C[C@@H]2O)c(Cl)c1-c1ccc(CC(C)(C)C(F)(F)F)cc1OC(F)F (relative stereo) [Example 153]
criterion not met

Does COc1cc(N[C@H](C)C(F)(F)F)ccc1-c1c(Cl)c(C(=O)NC[C@]2(O)CC[C@@H](S(C)(=O)=O)CC2)nn1C(C)(C)C [Example 27] have IC50 strictly under 10 nM?
criterion not met

A record lists CCn1nc(C(=O)NCC2(N)CCC(S(C)(=O)=O)CC2)c(Cl)c1-c1ccc(CC(C)C(F)(F)F)cc1OC (centres unmarked) [Example 128] . Is its IC50 below 10 nM?
criterion not met

Determine if COCCn1nc(C(=O)NC[C@]2(O)CC[C@@H](S(C)(=O)=O)CC2)c(C)c1-c1ccc(CC(C)(C)C(F)(F)F)cc1OC(F)F [Example 150] shows IC50 strictly lower than 10 nM.
criterion not met

State whether 10 nM exceeds IC50 recorded for CCn1nc(C(=O)NC[C@]2(O)CC[C@@H](S(C)(=O)=O)CC2)c(Cl)c1-c1c(F)cc(C[C@H](C)C(F)(F)F)cc1F (single isomer, unassigned) [Example 198] .
criterion not met

Please indicate whether the reported IC50 of CCn1nc(C(=O)NC[C@H]2CC[C@H](S(C)(=O)=O)CC2)c(Cl)c1-c1ccc(N[C@H](C)C(F)(F)F)cc1Cl [Example 176] is strictly below 10 nM.
criterion not met

Determine whether this molecule shows IC50 lower than 10 nM (ties excluded): Cn1nc(C(=O)NC[C@]2(O)CC[C@@H](S(C)(=O)=O)CC2)c(Cl)c1-c1ccc(CC(C)(C)C(F)(F)F)cc1OC(F)F [Example 154]
criterion met

Decide: IC50 of CCn1nc(C(=O)NC[C@H]2CC[C@H](S(C)(=O)=O)CC2)c(Cl)c1-c1ccc(N2CC(C(F)(F)F)C2)cc1OC [Example 208] strictly below 10 nM?
criterion not met
